System: Caco-2
Test: cell viability relative to DMSO; higher = less toxic
Conditions: 72 h; 1000 nM
Please go through the items and note down their cell viability.
Please respond with the number in % and leave the unit unwritten.

Inquiry: Which cell viability is reported for this compound? Cl/C=C\C[N+]12CN3CN(CN(C3)C1)C2 [1-((Z)-3-chloroallyl)-1,3,5,7-tetraazaadamantan-1-ium]
Reply text: 97.4

Inquiry: How about C#C[C@]1(OC(C)=O)CC[C@H]2[C@@H]3CCC4=C[C@@H](OC(C)=O)CC[C@@H]4[C@H]3CC[C@@]21C [ethynodiol-diacetate] ?
Reply text: 100

Inquiry: How about NS(=O)(=O)c1ccc(NC(=O)Nc2ccc(F)cc2)cc1 ?
Reply text: 105

Inquiry: How about O=C(O)CC[C@H]1CC[C@@](c2cc(F)ccc2F)(S(=O)(=O)c2ccc(Cl)cc2)CC1 ?
Reply text: 99.2

---

Please go through the items and note down their cell viability.
Tested on: Caco-2
Assay: cell viability relative to DMSO; higher = less toxic
Details: 72 h; 1 nM

Inquiry: Which cell viability is reported for this compound? O=C1NC(=S)NC(=O)C1C(=O)Nc1ccccc1 [merbarone]
Reply text: 94.7%

Inquiry: How about COCCN(C(=O)c1cc(OC)c(OC)c(OC)c1)c1nc(-c2ccccc2)cs1 [eact] ?
Reply text: 103%

Inquiry: How about CCCCCCCCCCCCCCCC(=O)OC[C@@H](NC(=O)C(Cl)Cl)[C@H](O)c1ccc([N+](=O)[O-])cc1 [chloramphenicol-palmitate] ?
Reply text: 111%

Inquiry: How about COc1ccc(COc2ccc(CC#N)cc2)cc1 [O4I1] ?
Reply text: 94.7%

Inquiry: How about COc1nc(C)nc(Cl)c1NC1=NCCN1 [moxonidine] ?
Reply text: 97.1%

Inquiry: How about O=C1[C@H](CC[C@H](O)c2ccc(F)cc2)[C@@H](c2ccc(O)cc2)N1c1ccc(F)cc1 [ezetimibe] ?
Reply text: 97.6%

Inquiry: How about Cc1cc(N2CCOCC2)ccc1Nc1nc(NC2CCCCC2)c2nc[nH]c2n1 ?
Reply text: 102%

Inquiry: How about COc1ccc(C(Cl)=C(c2ccc(OC)cc2)c2ccc(OC)cc2)cc1 [chlorotrianisene] ?
Reply text: 98.5%

Inquiry: How about O=C(CC1NCCCC1O)Cn1cnc2cc(Br)c(Cl)cc2c1=O (centres undefined) [halofuginone] ?
Reply text: 95%

---

System: Vero E6
Assay: cell viability relative to DMSO; higher = less toxic
Details: 72 h; 1000 nM
Please go through the items and note down their cell viability.
Write down the value, and be sure its unit follows.

Inquiry: Which cell viability is reported for this molecule? COc1cc(CN2CCN(c3ccc(F)cc3)CC2)cc(OC)c1OC
Reply text: 98.3%

Inquiry: How about C#CCOC(=O)C1=CCCN(C)C1 ?
Reply text: 98.4%

Inquiry: How about O=C(O)c1ccccc1-c1ccc(C(F)(F)F)cc1 ?
Reply text: 98.6%

Inquiry: How about CN1C(=O)CC[C@H]1c1cccnc1 ?
Reply text: 95.7%

Inquiry: How about COc1cc2c(NC3CCN(C(C)C)CC3)nc(C3CCCCC3)nc2cc1OCCCN1CCCC1 ?
Reply text: 99.2%

---

Please go through the items and note down their relative viability EC50.
Tested on: Vero E6
Assay: relative viability EC50 (midpoint between 100% and the lowest measured viability); higher = less toxic
Details: 72 h

Inquiry: Which relative viability EC50 is reported for this compound? CCCc1nc(C(C)(C)O)c(C(=O)O)n1Cc1ccc(-c2ccccc2-c2nnn[nH]2)cc1
Reply text: > 10 µM

Inquiry: How about COc1ccc2[nH]c(C(=O)c3ccccc3)cc2c1 ?
Reply text: 0.178 µM

Inquiry: How about CC(C)(C)NCC(O)c1ccccc1Cl (centres undefined) ?
Reply text: > 10 µM

Inquiry: How about CCN(CC)c1ccc(C(=C2C=CC(=[N+](CC)CC)C=C2)c2ccccc2)cc1 ?
Reply text: 0.328 µM

Inquiry: How about CC1(C)C(=O)N(CCN2CCC(C(=O)c3ccc(F)cc3)CC2)c2ccccc21 ?
Reply text: > 10 µM

Inquiry: How about COc1ccc(COc2cc3oc(=O)c4cc(C(C)O)ccc4c3cc2OC)cc1 (centres undefined) ?
Reply text: > 10 µM

Inquiry: How about CN(C)c1ccc(/C=C2\C(=O)Nc3ccccc32)cc1 ?
Reply text: > 10 µM

Inquiry: How about CN(C(=O)CN1C(=O)COc2cc(Cl)c(Cl)cc21)[C@@H](CN1CCCC1)c1ccc(-c2cccc(C(N)=O)c2)cc1 ?
Reply text: 2.94 µM

Inquiry: How about O=C(C[S+]([O-])C(c1ccccc1)c1ccccc1)NO (centres undefined) ?
Reply text: > 10 µM

Inquiry: How about CC[C@@H](Nc1c(Nc2cccc(C(=O)N(C)C)c2O)c(=O)c1=O)c1ccc(C)o1 ?
Reply text: > 10 µM

Inquiry: How about CCCC(=O)Nc1cccc(NC(=O)c2ccccc2Br)c1 ?
Reply text: > 10 µM

Inquiry: How about COc1cc2c(CCNC(C)=O)c[nH]c2cc1Cl ?
Reply text: > 10 µM

Inquiry: How about CC(O)CC(=O)O (stereo not drawn) [beta-hydroxybutyrate] ?
Reply text: > 10 µM

Inquiry: How about Cl/C=C\C[N+]12CN3CN(CN(C3)C1)C2 [1-((Z)-3-chloroallyl)-1,3,5,7-tetraazaadamantan-1-ium] ?
Reply text: > 10 µM

Inquiry: How about CCCCCCNC(=O)Nc1ccc(S(=O)(=O)Nc2ccc(CCNC[C@H](O)COc3ccc(O)cc3)cc2)cc1 ?
Reply text: > 10 µM

Inquiry: How about O=P(O)(O)C(Cl)(Cl)P(=O)(O)O ?
Reply text: > 10 µM

Inquiry: How about O[C@@H](C[C@H]1c2ccccc2-c2cncn21)C1CCCCC1 ?
Reply text: > 10 µM

Inquiry: How about N#CN=C(NCCCCCCOc1ccc(Cl)cc1)Nc1ccncc1 ?
Reply text: 0.326 µM

Inquiry: How about CC[C@H]1[C@@H]2C[C@H]3[C@@H]4N(C)c5ccccc5[C@]45C[C@@H]([C@@H]2[C@H]5O)N3[C@@H]1O ?
Reply text: > 10 µM

Data provenance: the supplement of paper PMC13380429
